Test system: HS 578T breast
protocol_details: NCI tumour cell line growth inhibition, 48 h
parameter: TGI

Here's what some known entries look like.
INSERT INTO measurements (compound, recorded_value) VALUES
  ('COc1ccc2oc(=N)c(C(=O)Nc3ccccc3)cc2c1', '39.6 µM'),
  ('C=CC12CCN(CC1)C(C(O)c1ccnc3ccc(OC)cc13)C2 (stereo not drawn)', '> 100 µM'),
  ('C=C(C)C(C1C=C(CCC(C=O)=C(C)C)C(=O)O1)C1(OC)C=C(C)C(=O)O1 (stereo not drawn)', '> 100 µM');

Please examine the following record next.
Enquiry: Fill in the blank: the reported TGI of `COc1ccc(CNc2c3ccccc3nc3ccccc23)cc1F` is ____.
Return: 11.5 µM

* * *

System: DLD-1 colon
protocol_details: NCI tumour cell line growth inhibition, 48 h
The compounds listed here are annotated with their TGI.

Here's what some known entries look like.
INSERT INTO measurements (compound, parameter, recorded_value) VALUES
  ('CCOC(=O)/C=C1/C(CCCOCc2ccccc2)C2CCCC23CC2(CCN13)OCCO2 (stereo not given)', 'TGI', '73.3 µM'),
  ('C[N+](C)(C)CC(=O)N/N=C(/Cc1cc(=O)oc2cc(O)ccc12)C(=O)Nc1ccc(Cl)cc1', 'TGI', '> 100 µM'),
  ('CC12c3ccccc3C(OC=O)(c3ccccc31)C1(C)c3ccccc3C2(OC=O)c2ccccc21', 'TGI', '> 100 µM');

Enquiry: Fill in the blank: the reported TGI of `O=Cc1cc2c(cc1-c1cc3c(cc1C=O)OCO3)OCO2` is ____.
Return: > 100 µM

Enquiry: Fill in the blank: the reported TGI of `COc1cc(C[P+](c2ccccc2)(c2ccccc2)c2ccccc2)cc(OC)c1OC` is ____.
Return: > 100 µM

Enquiry: Fill in the blank: the reported TGI of `COc1ccc(/C=C\c2cc(OC)c(OC)c(OC)c2)cc1OCC(=O)O` is ____.
Return: > 90.2 µM

Enquiry: Fill in the blank: the reported TGI of CC(C)C1CN(C(=O)OCc2ccccc2)C2N1C(=O)C2(C)OCc1ccccc1 (stereo not given) is ____.
Return: > 100 µM

Enquiry: Fill in the blank: the reported TGI of `O[C@H]1[C@H](O)[C@@H](O)CN2CC[C@H](O)[C@H]12` is ____.
Return: > 100 µM

Enquiry: Fill in the blank: the reported TGI of COC(=N)c1csc(C2OC(CO)C(O)C2O)n1 (stereo not given) is ____.
Return: > 100 µM

Enquiry: Fill in the blank: the reported TGI of O/N=C1\CCCCC1C(NO)c1ccccc1 (stereo not given) is ____.
Return: > 100 µM

* * *

System: SW-620 colon
protocol_details: NCI tumour cell line growth inhibition, 48 h
parameter: TGI (µM)
Hi! Could you send only the number? It should be in µM, unit omitted.

INSERT INTO results (molecule, recorded_value) VALUES
  ('OC(C#CCN1CCCC1)(c1ccccc1)c1ccccc1Cl (stereo not given)', 39.3);

Please examine the following record next.
Enquiry: Give recorded TGI with SW-620 colon for the following molecule: `O=C1c2cccc3cccc(c23)C(=O)N1CCCNCCCCNCCCNCCCN1C(=O)c2cccc3cccc(c23)C1=O`
Return: 4.35
